Answer each item with its documented MIC90.
Tested on: Acinetobacter spp
Assay: In vitro MIC, 2010 surveillance isolates
Type: cell-based
Conditions: N America; N=42

Here are 3 compounds together with their reported answers.
CO/N=C(\C(=O)N[C@@H]1C(=O)N2C(C(=O)O)=C(CSc3nc(=O)c(=O)[nH]n3C)CS[C@H]12)c1csc(N)n1; > 8 µg/mL
C[C@H]1c2cccc(O)c2C(=O)C2=C(O)[C@]3(O)C(=O)C(C(N)=O)=C(O)[C@@H](N(C)C)[C@@H]3[C@@H](O)[C@@H]21; > 8 µg/mL
CO/N=C(\C(=O)N[C@@H]1C(=O)N2C(C(=O)[O-])=C(C[N+]3(C)CCCC3)CS[C@H]12)c1csc(N)n1 [Cefepime]; > 16 µg/mL

Proceed to the following item.
Entry `C[C@H]1COc2c(N3CCN(C)CC3)c(F)cc3c(=O)c(C(=O)O)cn1c23` needs its MIC90 filled in; supply it.
> 4 µg/mL
